Listing: switch fluorescence ratio of selected sequences
# System: ATP;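 further: ATP exposure 15 min at 22 °C before imaging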
# Method description: switch fluorescence ratio, 500 uM ATP over buffer (Cy3 cluster intensity, sum of 5 cycles each) (fold (ratio)); higher = stronger signal-on switching upon ATP binding; sequences stand for … in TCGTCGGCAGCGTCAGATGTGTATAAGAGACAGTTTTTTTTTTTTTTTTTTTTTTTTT…TC
# Particulars: aptamer strand: ATP DNA aptamer (quencher-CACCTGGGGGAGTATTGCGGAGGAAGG + anchor), 100 nM annealed; ATP concentration: 500 uM
Please reply with the number alone, leaving off any unit.

Examples from the recorded data:
> print(dat)
   sequence.record  endpoint.value
1       GTATAAAGGC            1.01
2        GCAGTTTTA               1
3       TTTGAGTAAG            1.02
4       TCTTGGTTTT            1.02
5       TTAGTGGGAG           0.966

switch fluorescence ratio value, target or system ATP, for `TCATGGTCCC` : 1.02

// sequence `TTAGACGTTC` , assay ATP, switch fluorescence ratio value: 0.998

So the reported switch fluorescence ratio for `AATTGGGTTG` , on ATP, turned out to be 0.957

Test item `GGTATTACGA` ; ATP; reported switch fluorescence ratio was 0.989

Record `TTAGGTGCGT` ; system ATP; switch fluorescence ratio = 1.08

Hey, ATP data for `AGGCACGGGG` : switch fluorescence ratio came out at 0.993

# value of switch fluorescence ratio, ATP, item `CTTTTAAGGC` = 1.1

###

Listing of recorded switch fluorescence ratio by entry.
# System: ATP;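 further: ATP exposure 15 min at 22 °C before imaging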
# Method description: switch fluorescence ratio, 500 uM ATP over buffer (Cy3 cluster intensity, sum of 5 cycles each) (fold (ratio)); higher = stronger signal-on switching upon ATP binding; sequences stand for … in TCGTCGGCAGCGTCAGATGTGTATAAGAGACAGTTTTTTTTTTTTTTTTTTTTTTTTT…TC
# Particulars: aptamer strand: ATP DNA aptamer (quencher-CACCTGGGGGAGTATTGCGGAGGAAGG + anchor), 100 nM annealed; ATP concentration: 500 uM
Output spec: single numeric token, no unit.

> print(dat)
   sequence.record  endpoint.value
1       GTGGCGGGGA            1.02
2       TTTTTAGTAC            0.99
3       TTGAAGTTTT           0.991
4       TAGCGTTAGG            1.03
5       GTCCACCTAC            1.38
6       GTGTTGGTTG           0.982

Form field switch fluorescence ratio for item `GGGTTTGGAT` on ATP: 0.984

The sequence `TTTTAAGGGA` , when measured on ATP, yielded switch fluorescence ratio of 0.998

###

# Test system: ATP;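 further: ATP exposure 15 min at 22 °C before imaging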
# Method description: switch fluorescence ratio, 500 uM ATP over buffer (Cy3 cluster intensity, sum of 5 cycles each) (fold (ratio)); higher = stronger signal-on switching upon ATP binding; sequences stand for … in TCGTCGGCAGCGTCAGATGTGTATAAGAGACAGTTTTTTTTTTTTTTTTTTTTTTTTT…TC
# Particulars: aptamer strand: ATP DNA aptamer (quencher-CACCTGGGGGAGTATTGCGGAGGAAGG + anchor), 100 nM annealed; ATP concentration: 500 uM
Measured endpoint: switch fluorescence ratio
Please respond with just the number, no unit label.

These recorded examples may help you get a feel for the data.
> print(dat)
   sequence.record  system.under.test  endpoint.value
1       AGGGGGGGAC                ATP               1
2       CCGGCGGGGC                ATP               1
3       AGGGAGGATC                ATP            1.02
4       GGGAGCCCGG                ATP           0.989
5       GGCATCGAAG                ATP               1
6       TTATTGGGGT                ATP            1.01
7       CACTACGACT                ATP            1.08
8       TTTACATAAG                ATP               1
9       AAGTCGGCTG                ATP           0.976

// switching to the query sequence
For this sequence ( `CTTGGGGGGA` ), measured switch fluorescence ratio is 0.997

From: the supplement of paper PMC10126150
